# STUDY_TARGET: S29A PncC (Escherichia coli, UniProt P0A6G3, S29A)
# Construct: made in house; host or cells: E. coli BL21(DE3)
# Sequence (P0A6G3 whole entry S29A): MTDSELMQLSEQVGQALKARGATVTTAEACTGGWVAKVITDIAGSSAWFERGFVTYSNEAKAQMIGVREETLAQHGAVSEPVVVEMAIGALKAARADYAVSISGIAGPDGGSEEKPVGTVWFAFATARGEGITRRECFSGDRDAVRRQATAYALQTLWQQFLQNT
# Assay type: binding, E. coli
# REPORTED_CONDITIONS: nucleotide 24 µM
ASSAY_ENDPOINT: S29A PncC fluorescence quenching (%) vs buffer

[[record]]
molecule = "Nc1ncnc2c1ncn2[C@@H]1O[C@H](COP(=O)(O)OP(=O)([O-])OC[C@H]2O[C@@H]([n+]3cccc(C(=O)O)c3)[C@H](O)[C@@H]2O)[C@@H](O)[C@H]1O [NaAD, nicotinic acid adenine dinucleotide]"
units_symbol = "%"
test_result = 0

[[record]]
molecule = "O=C(O)c1cccnc1 [Na, nicotinic acid]"
units_symbol = "%"
test_result = 0.16

[[record]]
molecule = "O=C(O)c1ccc[n+]([C@@H]2O[C@H](COP(=O)([O-])O)[C@@H](O)[C@H]2O)c1 [NaMN, nicotinic acid mononucleotide]"
units_symbol = "%"
test_result = 47.93

[[record]]
molecule = "NC(=O)c1ccc[n+]([C@@H]2O[C@H](COP(=O)([O-])O)[C@@H](O)[C@H]2O)c1 [NMN, nicotinamide mononucleotide]"
units_symbol = "%"
test_result = 37.52

